- measured target: TXA2 receptors of human platelets (Homo sapiens, UniProt P21731)
- Construct: Human platelets incubate in the presence of a single concentration; endogenous in cells; host or cells: human platelets
- experiment summary: displacement of radioligand [^125 I]PTA-OH specifically bound to the TXA2 receptors of human platelets
- Assay type: binding
- test settings: 0.5 h, 1E-5 M competing agent, 30 minutes at 37° C, read-out: % displacement, Concentration 1E-5 M
experimental readout: inhibition at 10 µM (%)

Asked: Would you kindly share the measured inhibition at 10 µM for CC(C)(CC(=O)O)Cc1nc2cc(F)ccc2n1Cc1ccc(Cl)c(Cl)c1 ?
Given back: 92

Asked: Would you kindly share the measured inhibition at 10 µM for CC(C)(CC(=O)O)Cc1nc2cc(F)ccc2n1Cc1ccc(Cl)cc1 ?
Given back: 100

Asked: Would you kindly share the measured inhibition at 10 µM for CC(C)(CC(=O)O)Cc1nc2cc(Cl)ccc2n1Cc1ccc(Cl)c(Cl)c1 ?
Given back: 92

Asked: Would you kindly share the measured inhibition at 10 µM for CC(C)(CC(=O)O)Cc1nc2cc(F)ccc2n1Cc1ccc(S(C)(=O)=O)cc1 ?
Given back: 100

Asked: Would you kindly share the measured inhibition at 10 µM for CC(C)(CC(=O)O)Cc1nc2cc(F)ccc2n1Cc1ccc(Br)cc1 ?
Given back: 92

Asked: Would you kindly share the measured inhibition at 10 µM for CCC(C)(CC(=O)O)Cc1nc2ccccc2n1Cc1ccc(Cl)cc1 (stereo not shown) ?
Given back: 100

Asked: Would you kindly share the measured inhibition at 10 µM for CC(C)(CC(=O)O)Cc1nc2cc(Cl)ccc2n1Cc1ccc(Cl)cc1F ?
Given back: 87

Asked: Would you kindly share the measured inhibition at 10 µM for CC(CC(=O)O)Cc1nc2ccccc2n1Cc1ccc(Cl)cc1 (stereo not shown) ?
Given back: 100

I. CC(C)(CC(=O)O)Cc1nc2cc(Br)ccc2n1Cc1ccc(Cl)cc1
II. O=C(O)CCCCSc1nc2cc(F)ccc2n1Cc1ccc(Cl)cc1
Asked: Identify the entry with the smaller inhibition at 10 µM: I or II . Label of pick, please.
Given back: I

----------
- measured target: TXA2 receptors of human platelets (Homo sapiens, UniProt P21731)
- Construct: Human platelets incubate in the presence of a single concentration; endogenous in cells; host or cells: human platelets
- experiment summary: displacement of radioligand [^125 I]PTA-OH specifically bound to the TXA2 receptors of human platelets
- Assay type: binding
- test settings: 0.5 h, 1E-5 M competing agent, 30 minutes at 37° C, read-out: % displacement, Concentration 1E-5 M
experimental readout: inhibition at 10 µM (%)

Asked: Would you kindly share the measured inhibition at 10 µM for COc1ccc(Cn2c(CC(C)(C)CC(=O)O)nc3ccccc32)cc1 [Example 68] ?
Given back: 100

Asked: Would you kindly share the measured inhibition at 10 µM for CC(C)(CC(=O)O)Cc1nc2ccccc2n1Cc1ccc(O)cc1 [Example 87] ?
Given back: 96

Asked: Would you kindly share the measured inhibition at 10 µM for CSc1ccc(Cn2c(CC(C)(C)CC(=O)O)nc3cc(Cl)ccc32)cc1 [Example 117] ?
Given back: 89

Asked: Would you kindly share the measured inhibition at 10 µM for CC(C)(CC(=O)O)Cc1nc2cc(Cl)ccc2n1Cc1ccc(Br)cc1F [Example 135] ?
Given back: 95

Asked: Would you kindly share the measured inhibition at 10 µM for CC(C)(CC(=O)O)Cc1nc2ccccc2n1Cc1ccc([N+](=O)[O-])cc1 [Example 81] ?
Given back: 100

Asked: Would you kindly share the measured inhibition at 10 µM for O=C(O)CC1(Cc2nc3cc(F)ccc3n2Cc2ccc(Cl)cc2)CCCCC1 [Example 73] ?
Given back: 98

Asked: Would you kindly share the measured inhibition at 10 µM for CC(C)(CC(N)=O)Cc1nc2ccccc2n1Cc1ccc(Cl)cc1 [Example 85] ?
Given back: 90

Asked: Would you kindly share the measured inhibition at 10 µM for O=C(O)CCCSc1nc2cc(F)ccc2n1Cc1ccc(Cl)cc1 [Example 65] ?
Given back: 93

Asked: Would you kindly share the measured inhibition at 10 µM for O=C(O)[C@@H]1CC[C@H]1c1nc2cc(F)ccc2n1Cc1ccc(Cl)cc1 (relative stereo) [Example 90] ?
Given back: 97

----------
- measured target: TXA2 receptors of human platelets (Homo sapiens, UniProt P21731)
- Construct: Human platelets incubate in the presence of a single concentration; endogenous in cells; host or cells: human platelets
- experiment summary: displacement of radioligand [^125 I]PTA-OH specifically bound to the TXA2 receptors of human platelets
- Type: binding
- test settings: 0.5 h, 1E-5 M competing agent, 30 minutes at 37° C, read-out: % displacement, Concentration 1E-5 M
experimental readout: inhibition at 10 µM (%)

Asked: Would you kindly share the measured inhibition at 10 µM for CC(C)(CC(=O)O)Cc1nc2cc(Cl)ccc2n1Cc1ccc(S(C)(=O)=O)cc1 [Example 119] ?
Given back: 82

Asked: Would you kindly share the measured inhibition at 10 µM for CC(C)(CC(=O)O)Cc1nc2ccccc2n1Cc1ccc(Br)cc1F [Example 76] ?
Given back: 99

Asked: Would you kindly share the measured inhibition at 10 µM for CC(C)(CC(=O)O)Cc1nc2cc(Cl)ccc2n1Cc1ccc2ccccc2c1 [Example 143] ?
Given back: 89

Asked: Would you kindly share the measured inhibition at 10 µM for CC(C)(CC(=O)O)Cc1nc2cc(F)ccc2n1Cc1ccc(Br)cc1F [Example 105] ?
Given back: 98

Asked: Would you kindly share the measured inhibition at 10 µM for O=C(O)[C@@H]1CCC[C@H]1c1nc2cc(F)ccc2n1Cc1ccc(Cl)cc1 (relative stereo) [Example 153] ?
Given back: 100

Asked: Would you kindly share the measured inhibition at 10 µM for O=C(O)CCCSc1nc2ccccc2n1Cc1ccc(Cl)cc1 [Example 63] ?
Given back: 97

Asked: Would you kindly share the measured inhibition at 10 µM for COc1ccc2c(c1)nc(CC(C)(C)CC(=O)O)n2Cc1ccc(Cl)cc1 [Example 78] ?
Given back: 100

Asked: Would you kindly share the measured inhibition at 10 µM for CC(C)(CC(=O)O)Cc1nc2ccccc2n1Cc1ccc(Cl)cc1 [Example 77] ?
Given back: 100

Asked: Would you kindly share the measured inhibition at 10 µM for CC(C)(CC(=O)O)Cc1nc2ccccc2n1Cc1ccc2ccccc2c1 [Example 84] ?
Given back: 98

----------
- measured target: TXA2 receptors of human platelets (Homo sapiens, UniProt P21731)
- Construct: Human platelets incubate in the presence of a single concentration; endogenous in cells; host or cells: human platelets
- Sequence (P21731 1-343): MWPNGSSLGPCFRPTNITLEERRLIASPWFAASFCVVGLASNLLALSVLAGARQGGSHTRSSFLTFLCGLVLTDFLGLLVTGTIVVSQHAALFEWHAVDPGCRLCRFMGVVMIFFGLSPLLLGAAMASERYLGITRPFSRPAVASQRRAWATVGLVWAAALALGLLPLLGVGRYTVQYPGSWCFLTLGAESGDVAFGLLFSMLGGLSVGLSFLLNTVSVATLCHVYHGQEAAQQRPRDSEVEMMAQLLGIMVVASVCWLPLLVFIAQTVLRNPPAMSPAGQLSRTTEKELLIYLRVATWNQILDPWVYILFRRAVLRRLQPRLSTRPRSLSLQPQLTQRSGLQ
- experiment summary: displacement of radioligand [^125 I]PTA-OH specifically bound to the TXA2 receptors of human platelets
- Type: binding
- test settings: 0.5 h, 1E-5 M competing agent, 30 minutes at 37° C, read-out: % displacement, Concentration 1E-5 M
experimental readout: inhibition at 10 µM (%)

Asked: Would you kindly share the measured inhibition at 10 µM for CC(C)(CC(=O)O)Cc1nc2cc(Cl)ccc2n1Cc1ccc(Cl)cc1 ?
Given back: 99

Asked: Would you kindly share the measured inhibition at 10 µM for CC(C)(CC(=O)O)Cc1nc2cc(Cl)ccc2n1Cc1ccc(Br)cc1 ?
Given back: 100

Asked: Would you kindly share the measured inhibition at 10 µM for COc1ccc(Cn2c(CC(C)(C)CC(=O)O)nc3cc(F)ccc32)cc1 ?
Given back: 100

Asked: Would you kindly share the measured inhibition at 10 µM for CSc1ccc(Cn2c(CC(C)(C)CC(=O)O)nc3cc(F)ccc32)cc1 ?
Given back: 100

Asked: Would you kindly share the measured inhibition at 10 µM for O=C(O)CCCSc1nc2ccccc2n1Cc1ccc(Cl)cc1Cl ?
Given back: 97

Asked: Would you kindly share the measured inhibition at 10 µM for O=C(O)CC1(Cc2nc3cc(F)ccc3n2Cc2ccc(Cl)cc2)CC1 ?
Given back: 98

Asked: Would you kindly share the measured inhibition at 10 µM for CC(C)(CC(=O)O)Cc1nc2cc(F)ccc2n1Cc1ccc2ccccc2c1 ?
Given back: 93

Asked: Would you kindly share the measured inhibition at 10 µM for CCC(CC)(CC(=O)O)Cc1nc2ccccc2n1Cc1ccc(Cl)cc1 ?
Given back: 97

Asked: Would you kindly share the measured inhibition at 10 µM for CC(C)(CC(=O)O)Cc1nc2cc(Cl)c(Cl)cc2n1Cc1ccc(Cl)cc1 ?
Given back: 100
